Would you kindly list inhibition for each of these molecules?
# EXPERIMENTAL SYSTEM: OTU domain-containing protein 3 (Homo sapiens) (UniProt Q5T2D3)
# Sequence (Q5T2D3 whole entry, looked up, the tested form may be a part): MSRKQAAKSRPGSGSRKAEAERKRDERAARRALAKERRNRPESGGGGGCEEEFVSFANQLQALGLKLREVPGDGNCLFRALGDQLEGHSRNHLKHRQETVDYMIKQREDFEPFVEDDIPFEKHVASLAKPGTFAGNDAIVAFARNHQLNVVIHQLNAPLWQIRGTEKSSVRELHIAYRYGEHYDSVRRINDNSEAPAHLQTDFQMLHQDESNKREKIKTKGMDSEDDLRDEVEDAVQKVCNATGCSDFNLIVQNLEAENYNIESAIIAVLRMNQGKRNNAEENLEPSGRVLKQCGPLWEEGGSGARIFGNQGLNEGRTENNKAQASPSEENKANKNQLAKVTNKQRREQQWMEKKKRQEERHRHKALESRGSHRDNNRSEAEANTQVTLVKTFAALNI
# PROCEDURE SUMMARY: blocks human OTUD3 ubiquitin-rhodamine cleavage (AID 1645858)
# APPLIED CONDITIONS: purified OTUD3, Ub-rhodamine fluorescence, 2 h; at 25 µM; hits give high values
Screen size: about 47,000 compounds; about 330 (0.7%) were called active. Shown is part of a subset that was picked to be rich in actives.
Numbers only, in %.

These recorded examples may help you get a feel for the data.
MOLECULE: CCC(=O)Nc1nc2cc(NC(=O)c3ccc(OC)cc3)ccc2s1
inhibition [%]: 17.4

MOLECULE: CSc1ncnc2c1sc1nc(-c3ccccc3)c3c(c12)CC(C)(C)OC3
inhibition [%]: 7.31

MOLECULE: Cc1ccccc1C(=O)N1CCC2(CC1)c1ncc(-c3cccnc3)n1CCN2C
inhibition [%]: -6.54

MOLECULE: CCC(C)C1C(=O)/C(=C(\O)C2C3C(C)CC(C)CC3C=CC2C2(C)OC2C)C(=O)N1C (stereo unspecified)
inhibition [%]: 18.9

MOLECULE: Cc1occc1C(=O)Nc1cc(-c2ccc(F)cc2)nn1C
inhibition [%]: -0.358

Your task in this section: give inhibition for each listed record.
1. CC(=O)N1CCSc2ccc(S(=O)(=O)N(C)C(C)CCc3ccco3)cc21 (stereo unspecified)
2. CCN1C(=O)COc2cc(-c3noc(C(=O)N4CCN(c5ccccc5)CC4)n3)ccc21
3. CC(C)c1cc(C2CCCN2C(=O)Cc2ccc(F)cc2)no1 (stereo unspecified)
4. CC(C)Nc1ncnc2c1c(C(=O)N1CCCC1)c1ccccn12
5. COC(=O)c1ccc(CN(C)C(=O)c2ccc(-c3nnc(-c4ccccc4)o3)cc2)cc1
6. CC1(C)Cc2c(c(-c3ccco3)nc3sc4c(SCCCc5ccccc5)ncnc4c23)CO1
7. Cc1ccc(Sc2c(C)[nH]n(-c3ccccc3)c2=O)cc1

Ans:
[-8.61, 5.26, 2.85, -56.8, -0.482, 33.5, 7.8]

Your task in this section: give inhibition for each listed record.
1. Cc1cc(O)c(=O)cc2c1C[C@H]1CC(C)(C)/C=C/C[C@@]3(C)Oc4cc(=O)c(O)cc(C)c4C[C@@H]3C[C@H](O)[C@]1(C)O2
2. Cc1ccc(NC(=O)N2CCCC2c2cc(C)on2)c(Cl)c1 (stereo unspecified)
3. COc1cccc(N2CCN(C(=O)c3sc4ncccc4c3-n3cccc3)CC2)c1

Ans:
1. 33.2
2. -2.99
3. 15.3
